- studySystem: GPR84 N362S (Homo sapiens, UniProt Q9NQS5, N362S)
- Construct: FLAG (N); Gαi2-Cys352Ile (fusion partner) (C)
- Sequence (Q9NQS5 whole entry N362S, the tested form may be a part): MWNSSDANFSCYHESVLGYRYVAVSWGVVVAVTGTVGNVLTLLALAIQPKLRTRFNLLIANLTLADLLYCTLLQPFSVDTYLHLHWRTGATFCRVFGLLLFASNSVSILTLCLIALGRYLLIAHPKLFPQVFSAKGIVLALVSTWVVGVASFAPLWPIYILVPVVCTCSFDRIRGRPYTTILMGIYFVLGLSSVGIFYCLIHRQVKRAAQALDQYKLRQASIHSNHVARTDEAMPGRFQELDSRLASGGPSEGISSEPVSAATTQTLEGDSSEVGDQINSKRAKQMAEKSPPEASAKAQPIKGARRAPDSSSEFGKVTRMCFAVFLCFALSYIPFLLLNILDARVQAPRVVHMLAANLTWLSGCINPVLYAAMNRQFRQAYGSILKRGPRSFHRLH
- testDescription: [35S]GTPγS binding assay
- conditionInfo: [35S]GTPγS; N362S
pEC50: −log10 of the molar value.
observedProperty: pEC50

INSERT INTO assay_data (linenotation, experimentalresult) VALUES
  ('[O-][n+]1cc(O)cc(CCc2ccc(Cl)c(C(F)(F)F)c2)c1', 7.78),
  ('Cc1cc(CCCc2cc(O)c[n+]([O-])c2)ccc1Cl', 7.62);

---

- studySystem: GPR84-WT (GPR84-Gi2α fusion protein) (Homo sapiens)
- Sequence (Q9NQS5 whole entry, the tested form may be a part): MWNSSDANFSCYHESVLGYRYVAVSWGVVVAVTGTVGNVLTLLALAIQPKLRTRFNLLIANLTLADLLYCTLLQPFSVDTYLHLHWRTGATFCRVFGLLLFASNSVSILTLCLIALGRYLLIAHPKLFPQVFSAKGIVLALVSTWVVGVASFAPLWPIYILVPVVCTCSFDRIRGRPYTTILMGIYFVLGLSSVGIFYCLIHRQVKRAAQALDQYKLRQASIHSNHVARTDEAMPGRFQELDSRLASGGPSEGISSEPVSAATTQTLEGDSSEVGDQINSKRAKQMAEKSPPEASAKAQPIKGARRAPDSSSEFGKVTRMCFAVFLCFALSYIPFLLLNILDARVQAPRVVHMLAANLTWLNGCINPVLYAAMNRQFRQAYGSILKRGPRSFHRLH
- Sequence (P04899 with tags, fused parts or gaps C352I partner): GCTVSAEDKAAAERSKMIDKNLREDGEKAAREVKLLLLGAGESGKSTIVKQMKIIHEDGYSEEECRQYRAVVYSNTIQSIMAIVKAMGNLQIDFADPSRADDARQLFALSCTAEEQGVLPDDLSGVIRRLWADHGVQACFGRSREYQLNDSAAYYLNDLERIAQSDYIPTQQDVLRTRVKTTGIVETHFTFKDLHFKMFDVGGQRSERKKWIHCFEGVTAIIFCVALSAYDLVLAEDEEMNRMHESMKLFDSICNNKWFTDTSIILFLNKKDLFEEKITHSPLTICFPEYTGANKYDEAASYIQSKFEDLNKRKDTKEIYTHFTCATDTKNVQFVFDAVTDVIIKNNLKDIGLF
- testDescription: [35S]GTPγS binding assay
- Type: biochemical
- conditionInfo: pEC50 ± SEM, [35S]GTPγS; GPR84-WT; Extended Data Table 3
observedProperty: EC50 (nM)

INSERT INTO measurements (linenotation, observedproperty, unitabbrev, experimentalresult) VALUES
  ('[O-][n+]1cc(O)cc(CCc2ccc(Cl)c(C(F)(F)F)c2)c1', 'EC50', 'nM', 1.26);

---

- studySystem: GPR84 (Homo sapiens, UniProt Q9NQS5)
- Sequence (Q9NQS5 whole entry): as the sequence (Q9NQS5 whole entry, the tested form may be a part) above
- testDescription: CHO-K1-based PathHunter β-arrestin-2 recruitment assay
- Format: cell-based
- Design: host or cells: CHO-K1
- conditionInfo: compared to OX04929 (so in the source)
observedProperty: change in efficacy in β-arrestin-2 recruitment

INSERT INTO results (linenotation, experimentalresult) VALUES
  ('C=Cc1cc(CCCCc2cc(O)c[n+]([O-])c2)ccc1Cl', 'no significant change'),
  ('[O-][n+]1cc(O)cc(CCCCc2ccc(Cl)c(C3CC3)c2)c1', 'no significant change'),
  ('Cc1cc(CCCc2cc(O)c[n+]([O-])c2)ccc1Cl', 'no significant change'),
  ('CCc1cc(CCCCc2cc(O)c[n+]([O-])c2)ccc1Cl', 'no significant change'),
  ('CC(C)c1cc(CCCCc2cc(O)c[n+]([O-])c2)ccc1Cl', 'no significant change'),
  ('CC1(c2cc(CCCCc3cc(O)c[n+]([O-])c3)ccc2Cl)CC1', 'no significant change');

---

- studySystem: GPR84 F187A (GPR84-Gi2α fusion protein) (Homo sapiens, UniProt Q9NQS5, F187A)
- Construct: FLAG (N); Gαi2-Cys352Ile (fusion partner) (C); expressed in transfected cells
- Sequence (Q9NQS5 whole entry F187A, the tested form may be a part): as the sequence (Q9NQS5 whole entry, the tested form may be a part) above, with F187A counted along it
- testDescription: [35S]GTPγS binding assay
- Format: biochemical
- conditionInfo: Phe187Ala, read-out: EC50
observedProperty: EC50

INSERT INTO results (linenotation, experimentalresult) VALUES
  ('[O-][n+]1cc(O)cc(CCc2ccc(Cl)c(C(F)(F)F)c2)c1', '~0.1 nM');

---

- studySystem: GPR84 Y332A (Homo sapiens, UniProt Q9NQS5, Y332A)
- Construct: FLAG (N); Gαi2-Cys352Ile (fusion partner) (C)
- Sequence (Q9NQS5 whole entry Y332A, the tested form may be a part): as the sequence (Q9NQS5 whole entry N362S, the tested form may be a part) above, with Y332A, S362N counted along it
- testDescription: [35S]GTPγS binding assay
- conditionInfo: [35S]GTPγS; Y332A
pEC50: −log10 of the molar value.
Some compounds, each annotated with its measured pEC50.
observedProperty: pEC50

INSERT INTO results (linenotation, experimentalresult) VALUES
  ('Cc1cc(CCCc2cc(O)c[n+]([O-])c2)ccc1Cl', 9.37),
  ('[O-][n+]1cc(O)cc(CCc2ccc(Cl)c(C(F)(F)F)c2)c1', 9.46);
